Biological target: D(2) dopamine receptor (Homo sapiens, UniProt P14416)
Sequence (P14416 whole entry): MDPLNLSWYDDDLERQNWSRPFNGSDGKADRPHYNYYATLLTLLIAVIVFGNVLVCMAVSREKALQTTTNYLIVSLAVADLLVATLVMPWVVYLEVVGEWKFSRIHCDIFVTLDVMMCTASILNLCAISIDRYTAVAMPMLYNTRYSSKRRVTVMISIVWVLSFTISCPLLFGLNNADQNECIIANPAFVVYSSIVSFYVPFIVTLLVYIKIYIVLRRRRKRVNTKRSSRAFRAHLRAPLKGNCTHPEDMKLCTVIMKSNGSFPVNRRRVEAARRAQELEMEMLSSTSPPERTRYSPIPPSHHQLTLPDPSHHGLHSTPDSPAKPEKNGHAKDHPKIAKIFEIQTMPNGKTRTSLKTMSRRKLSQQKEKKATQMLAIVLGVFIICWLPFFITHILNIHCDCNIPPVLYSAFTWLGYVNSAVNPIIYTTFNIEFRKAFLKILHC
Assay: Displacement of [3H]spiperone from human D2 receptor transfected in HEK cells
pKi: −log10 of the molar value.

{"columns": ["compound", "pKi"],
 "data": [
  ["C=CCN1CCC[C@H]1CNC(=O)c1cc(CCCSC2CC(=O)N(CCCCCC(=O)NCCOCCOCCOCCOCCC(=O)N[C@@H](CCCCNC(=O)O/N=C/c3ccc([Si](F)(C(C)(C)C)C(C)(C)C)cc3)C(=O)N[C@@H](Cc3cnc[nH]3)C(=O)N[C@@H](C)C(=O)N[C@H](C(=O)N[C@@H](Cc3ccc(O)cc3)C(=O)N3CCC[C@H]3C(=O)N[C@@H](CCCNC(=N)N)C(=O)N[C@@H](Cc3cnc[nH]3)C(=O)O)[C@@H](C)CC)C2=O)cc(OC)c1OC (stereo partly drawn)", 8.22],
  ["C=CCN1CCC[C@H]1CNC(=O)c1cc(CCCSC2CC(=O)N(CCCCCC(=O)NCCOCCOCCOCCOCCC(N)=O)C2=O)cc(OC)c1OC (stereo partly drawn)", 8.14],
  ["C=CCN1CCC[C@H]1CNC(=O)c1cc(CCCSC2CC(=O)N(CCCCCC(=O)NCCOCCOCCOCCOCCOCCOCCOCCOCCC(=O)N[C@@H](Cc3cnc[nH]3)C(=O)N[C@@H](C)C(=O)N[C@H](C(=O)N[C@@H](Cc3ccc(O)cc3)C(=O)N3CCC[C@H]3C(=O)N[C@@H](CCCNC(=N)N)C(=O)N[C@@H](Cc3cnc[nH]3)C(=O)O)[C@@H](C)CC)C2=O)cc(OC)c1OC (stereo partly drawn)", 7.27]
]}

// provenance: ChEMBL document CHEMBL3259715
